Origin of measurements: patent US20140221340A1

Target: human CCR10 (Homo sapiens, UniProt P46092)
Construct: expressed in transfected cells; host or cells: KJMGER8 cell (cell line derived from Namalwa cell); expression induced with 10 nmol/L β-estradiol
Sequence (P46092 whole entry): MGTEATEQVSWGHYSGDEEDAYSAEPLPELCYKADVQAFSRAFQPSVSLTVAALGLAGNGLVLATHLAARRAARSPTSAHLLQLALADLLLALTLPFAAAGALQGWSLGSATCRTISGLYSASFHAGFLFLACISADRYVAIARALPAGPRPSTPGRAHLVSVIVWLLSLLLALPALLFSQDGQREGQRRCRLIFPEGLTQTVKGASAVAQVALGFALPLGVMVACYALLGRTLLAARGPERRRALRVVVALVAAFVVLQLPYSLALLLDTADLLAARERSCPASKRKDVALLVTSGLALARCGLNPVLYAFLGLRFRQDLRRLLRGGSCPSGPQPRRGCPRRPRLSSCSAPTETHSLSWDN
Experiment: Calcium assay of human CCR10 (inhibition of CTACK-induced increase in intracellular calcium ion concentration in hCCR10G16 cells)
Type: cell-based
Conditions: test compound 100 nmol/L; human recombinant CTACK; hCCR10G16 cells (KJMGER8/Namalwa-derived, Gα16 co-expressed); FLIPR or FDSS; read-out: Inhibitory rate (%) for an increase in calcium ion concentration
Experimental Endpoint: inhibition at 0.1 µM (%)

- CCNC(=O)NS(=O)(=O)c1cnn2c(Nc3ccccc3Cl)c(C(=O)N3CCC(c4ccccc4)CC3)cnc12: 92.4
- CCNC(=O)NS(=O)(=O)c1cnn2c(Nc3cc(C)ccc3Cl)c(C(=O)N3CC4(C3)CN(c3ccc(F)cc3)C4)cnc12: 24.3
- Cc1cc(F)ccc1Nc1c(C(=O)N2CCC(c3ccccc3)CC2)cnc2c(S(=O)(=O)NC(=O)C3CC3)cnn12: 93.4
- CCNS(=O)(=O)c1cnn2c(Nc3cc(C)ccc3Cl)c(C(=O)N3CCC4(CC3)OCc3ccccc34)cnc12: 80.3

----------
Target: human CCR10 (Homo sapiens, UniProt P46092)
Construct: expressed in transfected cells; host or cells: KJMGER8 cell (cell line derived from Namalwa cell); expression induced with 10 nmol/L β-estradiol
Test: Calcium assay of human CCR10 (inhibition of CTACK-induced increase in intracellular calcium ion concentration in hCCR10G16 cells)
Type: cell-based
Details: test compound 100 nmol/L; human recombinant CTACK; hCCR10G16 cells (KJMGER8/Namalwa-derived, Gα16 co-expressed); FLIPR or FDSS; read-out: Inhibitory rate (%) for an increase in calcium ion concentration
Experimental Endpoint: inhibition at 0.1 µM

• CCNC(=O)NS(=O)(=O)c1cnn2c(Nc3cc(Cl)ccc3F)c(C(=O)N3CCC(c4ccc(F)cc4)CC3)cnc12 [a-34] = > 100%
• CCNS(=O)(=O)c1cnn2c(Nc3ccc(F)cc3C)c(C(=O)N3CCC(c4ccc(F)cc4)CC3)cnc12 [a-3] = > 100%
• CCNS(=O)(=O)c1cnn2c(Nc3ccc(F)cc3C)c(C(=O)N3CCC(c4ccccc4)CC3)cnc12 [a-2] = > 100%
• CCNC(=O)NS(=O)(=O)c1cnn2c(Nc3ccc(Cl)cc3C)c(C(=O)N3CCC4(CC3)OCc3ccccc34)cnc12 [a-47] = > 100%
• Cc1cc(F)ccc1Nc1c(C(=O)N2CCC(c3ccccc3)CC2)cnc2c(S(=O)(=O)NC(=O)N3CCOCC3)cnn12 [a-68] = 85.9%
• O=C(NS(=O)(=O)c1cnn2c(NCc3ccccc3)c(C(=O)N3CCC(c4ccccc4)CC3)cnc12)C1CC1 [a-75] = 89.4%
• CONS(=O)(=O)c1cnn2c(Nc3cc(Cl)ccc3Cl)c(C(=O)N3CCC(c4ccc(F)cc4)CC3)cnc12 [a-27] = > 100%

----------
Target: human CCR10 (Homo sapiens, UniProt P46092)
Construct: expressed in transfected cells; host or cells: KJMGER8 cell (cell line derived from Namalwa cell); expression induced with 10 nmol/L β-estradiol
Test: Calcium assay of human CCR10 (inhibition of CTACK-induced increase in intracellular calcium ion concentration in hCCR10G16 cells)
Format: cell-based
Details: test compound 100 nmol/L; human recombinant CTACK; hCCR10G16 cells (KJMGER8/Namalwa-derived, Gα16 co-expressed); FLIPR or FDSS; read-out: Inhibitory rate (%) for an increase in calcium ion concentration
Experimental Endpoint: inhibition at 0.1 µM

- CCNC(=O)NS(=O)(=O)c1cnn2c(Nc3ccccc3Cl)c(C(=O)N3CCC(c4ccc(F)cc4)CC3)cnc12 [a-10]: > 100%
- CCNC(=O)NS(=O)(=O)c1cnn2c(Nc3cc(Cl)ccc3Cl)c(C(=O)N3CCC(c4ccc(F)cc4)CC3)cnc12 [a-23]: 96.7%
- CCNC(=O)NS(=O)(=O)c1cnn2c(Nc3ccc(F)cc3C)c(C(=O)N3CCC4(CC3)OCc3ccccc34)cnc12 [a-43]: 92%
- COC(=O)NS(=O)(=O)c1cnn2c(Nc3cc(C)ccc3C)c(C(=O)N3CCC(c4ccccc4)CC3)cnc12 [a-74]: > 100%
- CCC(=O)NS(=O)(=O)c1cnn2c(Nc3cc(C)ccc3Cl)c(C(=O)N3CCC(c4ccc(F)cc4)CC3)cnc12 [a-13]: > 100%
- CCC(=O)NS(=O)(=O)c1cnn2c(Nc3cc(F)ccc3F)c(C(=O)N3CCC(c4ccc(F)cc4)CC3)cnc12 [a-36]: > 100%
- CC(=O)NS(=O)(=O)c1cnn2c(Nc3ccc(F)cc3C)c(C(=O)N3CCC(c4ccccc4)CC3)cnc12 [a-17]: > 100%
- CCNS(=O)(=O)c1cnn2c(Nc3ccc(Cl)cc3C)c(C(=O)N3CCC(c4ccc(F)cc4)CC3)cnc12 [a-16]: > 100%
- O=C(c1cnc2c(S(=O)(=O)Nc3cccnn3)cnn2c1Nc1cc(Cl)ccc1Cl)N1CCC(c2ccc(F)cc2)CC1 [a-79]: > 100%
- Cc1cc(F)ccc1Nc1c(C(=O)N2CCC(c3ccc(F)cc3)CC2)cnc2c(S(=O)(=O)NC3CC3)cnn12 [a-5]: > 100%
- CC(=O)NS(=O)(=O)c1cnn2c(Nc3cc(Cl)ccc3F)c(C(=O)N3CCC(c4ccc(F)cc4)CC3)cnc12 [a-33]: > 100%
- Cc1ccc(Cl)c(Nc2c(C(=O)N3CCC4(CC3)OCc3ccccc34)cnc3c(S(=O)(=O)NC(=O)C4(C)COC4)cnn23)c1 [a-58]: > 100%
- CCNC(=O)NS(=O)(=O)c1cnn2c(Nc3ccc(Cl)c(Cl)c3)c(C(=O)N3CCC(c4ccc(F)cc4)CC3)cnc12 [a-39]: > 100%
- CCC(=O)NS(=O)(=O)c1cnn2c(Nc3cc(C(F)(F)F)ccc3Cl)c(C(=O)N3CCC(c4ccc(F)cc4)CC3)cnc12 [a-29]: > 100%
- CCC(=O)NS(=O)(=O)c1cnn2c(Nc3ccc(F)cc3Cl)c(C(=O)N3CCC4(CC3)OCc3ccccc34)cnc12 [a-50]: > 100%
- CCC(=O)NS(=O)(=O)c1cnn2c(Nc3cc(C)ccc3Cl)c(C(=O)N3CCC4(CC3)OCc3ccccc34)cnc12 [a-56]: > 100%
- CCC(=O)NS(=O)(=O)c1cnn2c(Nc3ccc(Cl)cc3Cl)c(C(=O)N3CCC(c4ccc(F)cc4)CC3)cnc12 [a-19]: 97%
- CCNS(=O)(=O)c1cnn2c(Nc3cc(C)ccc3Cl)c(C(=O)N3CCC(c4ccc(F)cc4)CC3)cnc12 [a-15]: 87.8%
- CC(=O)NS(=O)(=O)c1cnn2c(Nc3cc(F)ccc3F)c(C(=O)N3CCC(c4ccc(F)cc4)CC3)cnc12 [a-35]: > 100%
- Cc1ccc(Cl)c(Nc2c(C(=O)N3CCC(c4ccc(F)cc4)CC3)cnc3c(S(=O)(=O)NC(N)=O)cnn23)c1 [a-77]: > 100%
- Cc1ccc(Cl)c(Nc2c(C(=O)N3CCC(c4ccc(F)cc4)CC3)cnc3c(S(=O)(=O)NC(=O)C4CC4)cnn23)c1 [a-12]: > 100%
